assay overview: The inhibitory activity determined by using toluene-permeabilized cells of Escherichia coli and the specific nucleoside substrate of the translocase UMA5
reported metric: IC50 (µM)
Numbers only, in µM.

Provide measured IC50 value, entry: NC[C@H]1O[C@@H](OC[C@H]2O[C@@H](n3ccc(=O)[nH]c3=O)[C@H](O)[C@@H]2O)[C@H](O)[C@@H]1O
50

====

Assign pIC50 to each entry below.
assay overview: Inhibitory activity of compound was determined against bacterial translocase
Answers are plain numbers, as −log10 of the molar value.

molecule	pIC50
CSCCC(NC(=O)NC(Cc1cccc(O)c1)C(=O)O)C(=O)NC(C(=O)N/C=C1/CC(O)C(N2CCC(=O)NC2=O)O1)C(C)N(C)C(=O)C(N)Cc1cccc(O)c1 (centres undefined)	7.19
CC(=O)N[C@H]1[C@@H](O[C@@H]2O[C@H](CC(O)[C@H]3O[C@@H](n4ccc(=O)[nH]c4=O)[C@H](O)[C@@H]3O)[C@H](O)[C@H](O)[C@H]2NC(=O)/C=C/CC(C)C)O[C@H](CO)[C@@H](N)[C@@H]1O (some centres undefined)	6.32

I would be grateful if you could provide pIC50 for each of the following entries.
1. NC[C@H]1O[C@@H](O[C@H](CO)[C@H]2O[C@@H](n3ccc(=O)[nH]c3=O)[C@H](O)[C@@H]2O)[C@H](O)[C@@H]1O
2. NC[C@H]1O[C@@H](O[C@@H](CO)[C@H]2O[C@@H](n3ccc(=O)[nH]c3=O)[C@H](O)[C@@H]2O)[C@H](O)[C@@H]1O

5.30
3.37
